Target Under Test: Recombinant human c-KIT kinase (Homo sapiens (Human), UniProt P10721)
Sequence (P10721 26-976): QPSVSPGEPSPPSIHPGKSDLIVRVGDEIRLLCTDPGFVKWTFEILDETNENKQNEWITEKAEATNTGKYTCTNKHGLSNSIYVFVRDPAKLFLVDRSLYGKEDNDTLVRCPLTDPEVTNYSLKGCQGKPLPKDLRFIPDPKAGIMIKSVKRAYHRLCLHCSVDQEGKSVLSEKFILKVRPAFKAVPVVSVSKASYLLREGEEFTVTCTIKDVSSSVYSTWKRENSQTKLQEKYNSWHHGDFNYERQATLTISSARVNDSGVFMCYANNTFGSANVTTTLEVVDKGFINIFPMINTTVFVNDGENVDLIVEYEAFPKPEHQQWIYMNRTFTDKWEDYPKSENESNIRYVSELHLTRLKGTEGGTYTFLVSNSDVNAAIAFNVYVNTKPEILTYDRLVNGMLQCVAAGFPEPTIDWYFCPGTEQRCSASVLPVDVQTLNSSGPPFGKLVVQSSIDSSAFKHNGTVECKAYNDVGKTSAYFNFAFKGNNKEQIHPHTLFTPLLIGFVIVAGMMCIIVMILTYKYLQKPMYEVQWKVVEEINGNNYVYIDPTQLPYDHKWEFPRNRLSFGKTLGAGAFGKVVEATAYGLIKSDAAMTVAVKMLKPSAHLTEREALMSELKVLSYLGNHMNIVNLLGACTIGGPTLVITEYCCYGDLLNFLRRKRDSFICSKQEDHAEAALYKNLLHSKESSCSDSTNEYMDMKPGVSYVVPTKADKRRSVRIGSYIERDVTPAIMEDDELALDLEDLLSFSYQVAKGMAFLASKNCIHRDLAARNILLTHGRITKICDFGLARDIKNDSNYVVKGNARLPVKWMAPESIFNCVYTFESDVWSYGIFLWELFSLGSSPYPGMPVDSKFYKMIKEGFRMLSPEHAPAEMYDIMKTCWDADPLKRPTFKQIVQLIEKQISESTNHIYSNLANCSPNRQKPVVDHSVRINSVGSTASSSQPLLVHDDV
Protocol Summary: c-KIT kinase chemiluminescence assay (ADP-Glo)
Assay Conditions: ATP 50 μM
Here the recorded IC50 is given for each entry.

Would you please look over these solved cases?
Cc1ccc(-c2ncc(C3CC3)cn2)cc1NC(=O)c1cnc(-c2ccc3c(c2)CC(=O)N3)o1: < 100 nM
Cc1ncc(-c2noc(C3CN(CC(F)(F)F)C3)n2)cc1NC(=O)c1cnn2ccc(N3CC4(C3)CC(O)(C(F)F)C4)cc12: 100 to 1000 nM
Cc1ccc(-c2noc([C@H]3C[C@@H]3F)n2)cc1NC(=O)c1cnn2ccc(-c3c(C)nn(CCN4CCOCC4)c3C)cc12: < 100 nM
Cc1ccc(-c2noc([C@H]3C[C@@H]3F)n2)cc1NC(=O)c1cnn2cccnc12: > 1000 nM
Cc1ccc(-c2noc([C@H]3C[C@@H]3F)n2)cc1NC(=O)c1cnn2ccc(N3CC(C(=O)OC(C)(C)C)C3)cc12: 100 to 1000 nM

Could you tell me which IC50 is on file for Cc1ccc(-c2noc([C@H]3C[C@@H]3F)n2)cc1NC(=O)c1cnc(-c2ccccc2)[nH]1 ?
> 1000 nM

Could you tell me which IC50 is on file for Cc1ccc(-c2noc(N3CCOCC3)n2)cc1NC(=O)c1cnn2ccc(N3CC4(COC4)C3)cc12 ?
100 to 1000 nM

* * *

Here the recorded pEC50 is given for each entry.
System: M-07e cells
Protocol Summary: M-07e cellular assay (SCF-mediated cell proliferation)
Type: cell-based
Assay Conditions: Homo sapiens, 72 hours, CellTiter Glo
pEC50: −log10 of the molar value.

Would you please look over these solved cases?
Cc1ccc(-c2noc(C3CC4(C3)CN(C(=O)[C@H]3C[C@@H]3F)C4)n2)cc1NC(=O)c1cnn2ccc(N3CC4(COC4)C3)cc12 [Example 281-106]: 6.00 to 7.00
Cc1ccc(-c2noc([C@H]3C[C@@H]3F)n2)cc1NC(=O)c1cnn2cc(-c3cn(C4CC(F)(F)C4)nn3)ccc12 [Example 115]: > 7.00
Cc1ccc(-c2noc([C@H]3C[C@@H]3F)n2)cc1NC(=O)c1cnn2ccc(N3CC4(CCN4C(=O)OC(C)(C)C)C3)cc12 [Example 235]: < 6.00
Cc1ccc(-c2noc([C@H]3C[C@@H]3F)n2)cc1NC(=O)c1cnc(-c2ccc(-c3cnn(C)c3)cc2)o1 [Example 308-16]: 6.00 to 7.00

# evaluate next
Could you tell me which pEC50 is on file for CC(=O)N1CC2(CC(c3nc(-c4cnc(C)c(NC(=O)c5cnn6ccc(N7CC8(C7)CC(O)(C(F)F)C8)cc56)c4)no3)C2)C1 [Example 281-73] ?
< 6.00

* * *

Target Under Test: Recombinant human c-KIT kinase (Homo sapiens (Human))
Protocol Summary: c-KIT kinase chemiluminescence assay (ADP-Glo)
Assay Conditions: ATP 50 μM
pIC50: −log10 of the molar value.
Here the recorded pIC50 is given for each entry.

Cc1ccc(-c2noc([C@H]3C[C@@H](C(F)(F)F)C3)n2)cc1NC(=O)c1cnn2ccc(N3CC4(COC4)C3)cc12: > 7.00
COCCn1cc(-c2ccn3ncc(C(=O)Nc4cc(-c5noc([C@H]6C[C@@H]6F)n5)ccc4C)c3c2)cn1: > 7.00
Cc1ccc(-c2noc([C@H]3C[C@@H]3F)n2)cc1NC(=O)c1cnn2ccc(N3C[C@@H](CS(C)(=O)=O)[C@@H]3C)cc12: > 7.00
Cc1sc(-c2noc(C3CN(C(=O)C4(F)CC4)C3)n2)cc1NC(=O)c1cnn2ccc(N3CC4(C3)CC(O)(C(F)F)C4)cc12: 6.00 to 7.00
Cc1ccc(-c2noc([C@H]3C[C@@H]3F)n2)cc1NC(=O)c1cnn2ccc(O[C@@H]3CCOC3)cc12: > 7.00

Which pIC50 is reported with Recombinant human c-KIT kinase (Homo sapiens (Human)) for this entry: Cc1ccc(-c2noc([C@H]3C[C@@H]3F)n2)cc1NC(=O)c1cnc(-c2cccc3nc[nH]c23)o1 ?
6.00 to 7.00

Which pIC50 is reported with Recombinant human c-KIT kinase (Homo sapiens (Human)) for this entry: Cc1nc(C)c(-c2ccn3ncc(C(=O)Nc4cc(-c5noc([C@H]6C[C@@H]6F)n5)ccc4C)c3c2)c(C)n1 ?
6.00 to 7.00

Which pIC50 is reported with Recombinant human c-KIT kinase (Homo sapiens (Human)) for this entry: COC(=O)N1CC(c2nc(-c3cnc(C)c(NC(=O)c4cnn5ccc(N6CC7(COC7)C6)cc45)c3)no2)C1 ?
6.00 to 7.00

Which pIC50 is reported with Recombinant human c-KIT kinase (Homo sapiens (Human)) for this entry: Cc1ccc(-c2noc([C@H]3C[C@@H]3F)n2)cc1NC(=O)c1cnn2ccc(-c3cccnc3)cc12 ?
> 7.00

Which pIC50 is reported with Recombinant human c-KIT kinase (Homo sapiens (Human)) for this entry: Cc1ncc(-c2noc([C@H]3C[C@@H](C(F)(F)F)C3)n2)cc1NC(=O)c1cnn2ccc(N3CC4(C3)CC(O)(C(F)F)C4)cc12 ?
> 7.00
